study target: UniProt O60603
Sequence (O60603 21-784): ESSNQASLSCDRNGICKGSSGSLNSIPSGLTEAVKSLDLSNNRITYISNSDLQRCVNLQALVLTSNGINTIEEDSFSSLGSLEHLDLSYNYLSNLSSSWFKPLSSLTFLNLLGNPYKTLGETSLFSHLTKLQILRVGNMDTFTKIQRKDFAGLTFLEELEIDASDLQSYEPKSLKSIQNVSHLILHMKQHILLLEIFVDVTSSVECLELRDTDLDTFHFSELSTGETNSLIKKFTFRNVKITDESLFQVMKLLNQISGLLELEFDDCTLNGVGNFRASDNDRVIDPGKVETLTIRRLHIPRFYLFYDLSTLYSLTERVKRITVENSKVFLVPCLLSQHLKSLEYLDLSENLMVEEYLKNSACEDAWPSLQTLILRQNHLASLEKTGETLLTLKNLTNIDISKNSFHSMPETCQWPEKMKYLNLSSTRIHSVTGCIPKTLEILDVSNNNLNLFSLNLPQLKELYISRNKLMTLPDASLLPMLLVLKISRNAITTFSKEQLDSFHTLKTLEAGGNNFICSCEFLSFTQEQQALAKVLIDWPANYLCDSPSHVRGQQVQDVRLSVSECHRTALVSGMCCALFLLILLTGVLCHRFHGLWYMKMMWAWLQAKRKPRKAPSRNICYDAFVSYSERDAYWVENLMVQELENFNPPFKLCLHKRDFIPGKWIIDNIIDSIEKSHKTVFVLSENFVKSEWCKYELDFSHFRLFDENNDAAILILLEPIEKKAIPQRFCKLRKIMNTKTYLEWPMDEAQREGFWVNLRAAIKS
method: human TLR2-specific NF-κB reporter gene assay (HEK-Blue cells)
Type: cell-based
condition set: human TLR2-specific reporter gene assay; ND = no activity detected at 10 μM; read-out: TLR2-Agonistic Activity (EC50 in nM)
From the text: The induction of NF-κB in a TLR2-specific reporter gene assay was quantified using HEK-BLUE™ cells as previously described (Wu, W. et al., J. Med. Chem. 2010, 53, 3198-3213). HEK293 cells stably transfected with either human TLR2 or murine TLR2 and alkaline phosphatase (sAP) were obtained from InvivoGen (San Diego, Calif.), and were maintained in HEK-BLUE™ Selection medium containing zeocin and normocin. […]
Please provide measured EC50 for the entries that follow.
Supply the numeric figure in nM, leaving out any unit text.

Tested system UniProt O60603; EC50 recorded for `CCCCCCCCCCCCCCCCOC(=O)NCCSC[C@H](NC(C)=O)C(=O)N[C@@H](CO)C(=O)NCCCN(C)C` was 0.279

Tested system UniProt O60603; EC50 recorded for `CCCCCCCCCCCCCCCCNC(=O)OCCSC[C@H](NC(C)=O)C(=O)N[C@@H](CO)C(=O)OC` was 0.323
